target: human TYK2 (JH2domain-pseudokinase) (Homo sapiens (Human), UniProt P29597); experiment: TYK2 JH2 domain binding assay (KINOMEscan, DiscoveRx); settings: Table 4, JH2 binding assay
Sequence (P29597 556-888): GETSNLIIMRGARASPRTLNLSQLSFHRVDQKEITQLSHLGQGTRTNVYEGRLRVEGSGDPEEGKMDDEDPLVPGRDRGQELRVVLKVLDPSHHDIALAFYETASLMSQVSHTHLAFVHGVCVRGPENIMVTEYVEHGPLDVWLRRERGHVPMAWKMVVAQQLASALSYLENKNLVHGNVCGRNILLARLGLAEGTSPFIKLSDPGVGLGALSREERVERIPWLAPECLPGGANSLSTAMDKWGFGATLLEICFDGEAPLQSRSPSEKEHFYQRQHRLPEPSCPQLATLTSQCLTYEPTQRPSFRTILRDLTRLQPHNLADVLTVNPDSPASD
pKd: −log10 of the molar value.
assayMetric: pKd

Reported pKd of COc1c(Cl)cccc1Nc1cc(Nc2cccc(N3CC(OC)C3)n2)nc2[nH]n(C)c(=O)c12 [Compound I-116] : < 8.00
